# System: HeLa
# EXPERIMENT NOTES: MTT cytotoxicity assay, HeLa
# Assay type: cell-based, human
# CONDITION SUMMARY: 72 h treatment
Please go through the items and note down their pIC50.
Answers are plain numbers, as −log10 of the molar value.

Please review the entries below; each comes with its answer.
- Cc1cccc(C)c1[N+]#[C][Pt-2]12[c]3ccccc3-c3cccc([n+]31)-c1cc[nH][n+]12.[Cl-] (stereo not drawn) [Complex 1a, [Pt(C^N^N^pyr)(C?NR^1)]Cl]: 5.36
- CCCC[N+]#[C][Pt-2]12[c]3ccccc3-c3cccc([n+]31)-c1cc[nH][n+]12.[Cl-] (stereo not drawn) [Complex 2]: 5.29

Lookup: Would you mind telling me what pIC50 value was observed for O=S(=O)(O)C(F)(F)F.[C](#[N+]c1ccc2ccccc2c1)[Pt-2]12[c]3ccccc3-c3cccc([n+]31)-c1cc[nH][n+]12 (stereo not drawn) [Complex 4] ?
Found: 5.08
